Reference source for all entries: patent US20260116991A1

Catalogue of OD450 nm readings, one per entry.
target: T1, monkey GPC3-His protein (monkey); assay: ELISA, monkey GPC3-His coated; antibody 34.72 nM
T1 construct: Bought protein; also called monkey GPC3 protein
Please reply with the value in numeric form only.

Example binders with recorded OD450 nm:
| BINDER | OD450 nm |
| --- | --- |
| hAb007LH1L1e (antibody, human IgG1, V domains shown, Humanized F3.81.19, H1+L1e) VH: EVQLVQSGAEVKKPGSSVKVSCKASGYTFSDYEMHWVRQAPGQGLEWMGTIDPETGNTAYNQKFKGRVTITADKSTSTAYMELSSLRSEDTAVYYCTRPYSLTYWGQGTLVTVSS VL: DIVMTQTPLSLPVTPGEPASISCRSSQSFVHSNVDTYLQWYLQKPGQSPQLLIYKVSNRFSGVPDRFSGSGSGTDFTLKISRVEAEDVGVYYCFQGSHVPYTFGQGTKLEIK | 1.14 |
| hAb006LH3L1c (antibody, human IgG1, V domains shown, Humanized F3.38.7, H3+L1c) VH: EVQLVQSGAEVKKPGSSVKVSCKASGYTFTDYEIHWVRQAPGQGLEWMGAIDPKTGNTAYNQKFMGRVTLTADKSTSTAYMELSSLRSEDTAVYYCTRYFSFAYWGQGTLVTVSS VL: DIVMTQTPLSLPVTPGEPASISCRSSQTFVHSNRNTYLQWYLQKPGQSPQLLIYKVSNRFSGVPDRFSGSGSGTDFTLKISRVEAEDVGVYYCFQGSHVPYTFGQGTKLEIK | 1.26 |

Alright, here's another binder for you.
Problem: Give its OD450 nm value. Item: hAb006LH3L1e (antibody, human IgG1, V domains shown, Humanized F3.38.7, H3+L1e) VH: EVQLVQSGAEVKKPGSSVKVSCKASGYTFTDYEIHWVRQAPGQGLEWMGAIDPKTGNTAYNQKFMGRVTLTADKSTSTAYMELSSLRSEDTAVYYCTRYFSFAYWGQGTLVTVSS VL: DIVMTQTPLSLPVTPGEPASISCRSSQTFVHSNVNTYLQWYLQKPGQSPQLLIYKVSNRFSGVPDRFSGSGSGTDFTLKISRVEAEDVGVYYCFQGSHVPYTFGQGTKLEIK
Result: 1.26
